Provenance of the data: PubChem BioAssay AID624167

- Tested on: PEG-3
- protocolDescription: Peg3 promoter luciferase inhibitors, potency, dose response, cell-based, HeLa, CREF/GAPDH counter-screen panel (AID 624167)
- protocolConditions: HeLa PEG-Prom luciferase reporter, overnight, CREF/GAPDH counter-screens, run 1, dose range 1, individual replicate IC50 per panel
pIC50: −log10 of the molar value.
endpointLabel: pIC50

1) N=c1n(CC(=O)c2ccc([N+](=O)[O-])cc2)c2ccccc2n1Cc1ccc(Cl)cc1 = 5.02
2) O=C(COc1ccc2c(c1)CCC2)Nc1ccccn1 = 5.45
3) O=C(Sc1cccc2cccnc12)c1ccccc1Br = 4.85
4) Cc1cc(C)c2sc(NNC(=O)c3ccc(S(=O)(=O)N4CCc5ccccc5C4)cc3)nc2c1 = 6.03
5) COC(=O)c1cc(=O)n(Cc2ccco2)c(=Nc2ccc(F)cc2)s1 = 4.75
6) CC(C)NC(=O)NC(=O)COC(=O)c1c2c(nc3ccccc13)CCC2 = 4.78
7) CC1CCCC(C)N1C(=C(Cl)Cl)C(=C1SCCS1)[N+](=O)[O-] (stereo not drawn) = 4.94
8) Cc1ccccc1NC(=O)Nc1nc(C(N)C2CCCCC2)cs1 (stereo not drawn) = 4.68
9) O=Cc1cn(Cc2cccc(F)c2)c2ccccc12 = 4.65
10) CC1CCN(c2ccc(-c3cccs3)nn2)CC1 = 5.67
11) Cn1cccc1/C=C1/C(=O)NC(=S)N(Cc2ccc(F)cc2)C1=O = 4.50
12) CCOC(=O)CN(C(=O)CSc1nnc2c(n1)[nH]c1ccc(F)cc12)c1ccccc1 = 4.60
13) COc1ccccc1C(=O)Nc1nc2ccccc2s1 = 6.29
14) Cc1nc(SCC(=O)Nc2nc3ccccc3s2)c(C#N)c(C)c1C = 5.09
15) NCCc1c(-c2ccccc2)n(-c2ccccc2)c2ccccc12 = 4.76
16) CN1CCC2(CC1)N=C(c1ccc(F)cc1)C(=S)N2C(=O)c1ccc(C(C)(C)C)cc1 = 5.19
17) C[C@@]12C(=O)Nc3cc(Cl)ccc3C(=O)N1[C@H]1c3cc(Cl)ccc3OC[C@@H]1[C@@H]2c1ccccc1 = 4.79
18) O=C(Nc1nc2cc3c(cc2s1)OCO3)C1=COCCO1 = 5.77
19) COc1cc2ccccc2cc1C(=O)N(CCN(C)C)c1nc2c(OC)ccc(OC)c2s1 = 4.51
20) Brc1ccc(N/N=C(/N=Nc2nn[nH]n2)c2ccccc2)cc1 = 6.12
21) Cc1cccc(C)c1-n1nnnc1C(c1ccccc1OC(F)(F)F)N1CCC(n2c(=O)[nH]c3ccccc32)CC1 (stereo not drawn) = 4.68
22) Cc1c(C(=O)N2CCN(c3ccc(F)cc3)CC2)sc2ncnc(N3CCN(c4ccccn4)CC3)c12 = 4.93
23) O=C(NC(c1ccc(F)cc1)c1ccc2ccccc2n1)C1CCN(Cc2cccc(C(F)(F)F)c2)CC1 (stereo not drawn) = 4.79
24) CC1=NOC(=O)/C1=C\c1ccc(-c2ccccc2Br)o1 = 4.95
25) O=C(C[n+]1ccc(-c2cc(C(=O)Nc3cccc(C(F)(F)F)c3)c3ccccc3n2)cc1)c1cccc([N+](=O)[O-])c1 = 4.63
26) O=C(NCCc1ccccc1)c1ccc2c(c1)OCCO2 = 6.19
27) Brc1ccc(N=Nc2ccc3ccccc3n2)cc1 = 5.24
28) Clc1cccc(-c2nc(-c3ccccn3)no2)c1 = 5.43
29) CCN(CCCl)c1cc(CN(C)C)cc(NC(=O)c2ccc(C(=O)Nc3cc(CN(C)C)cc(N(CC)CCCl)c3)cc2)c1 = 5.80
30) O=c1cc2oc3cc(O)c(O)cc3c(-c3ccccc3[N+](=O)[O-])c-2cc1O = 4.72
31) COc1cc(NC(=O)Nc2nc(C(N)CCc3ccccc3)cs2)cc(OC)c1OC (stereo not drawn) = 4.67
32) COc1ccc(-c2nc(-c3ccccn3)no2)cc1 = 6.12
33) COc1cc2c(cc1OC)CN(c1nc(-c3cccnc3)nc3ccccc13)CC2 = 4.50
34) Cc1ccc(-c2nnc(N3CCN(c4ccccn4)CC3)c3ccccc23)cc1 = 4.68
35) Cc1cc(C)c2ccc(N)nc2c1O = 5.11
36) O/N=C(\c1ccc(Cl)cc1Cl)c1ncc(C(F)(F)F)cc1Cl = 4.49
37) O=c1oc2ccccc2cc1-c1cn2ccccc2n1 = 5.64
38) CC1(C)CC(NC(=O)c2sc3cc(Cl)ccc3c2Cl)CC(C)(C)N1 = 4.68
39) Cc1ccsc1C(=O)OCC(=O)c1cc(C)n(CC2CCCO2)c1C (stereo not drawn) = 4.93
40) O=C(NCCc1ccccc1)c1ccc2c(c1)OCCCO2 = 6.33
41) CCOC(=O)c1ccc2ncc(C(=O)OCC)c(NCCN(C)C)c2c1 = 4.82
